system: Shigella flexneri; assay: growth AUC normalised to DMSO control (fraction of control); higher = less growth inhibition, active = hit call of the paper; conditions: 20 µM
Where a name gives a salt, the structure may show the parent alone.
Outcome: criterion met for growth AUC normalised to DMSO control of at least 1; criterion not met for anything lower.

# example entries with known answers
compound	system	class
CCN(C(C)=O)c1cccc(-c2ccnc3c(C#N)cnn23)c1 [Zaleplon]	Shigella flexneri	criterion not met
CN(C)[C@@H]1C(=O)C(C(N)=O)=C(O)[C@@]2(O)C(=O)C3=C(O)c4c(O)cccc4[C@@](C)(O)[C@H]3[C@H](O)[C@@H]12 [Oxytetracycline dihydrate]	Shigella flexneri	criterion not met
CN1[C@@H]2CC[C@H]1C[C@@H](OC(=O)C(CO)c1ccccc1)C2 (some centres not stated) [Atropine sulfate monohydrate]	Shigella flexneri	criterion met
CC(C)c1c(CN(C)C(C)Cc2ccccc2)n(C)n(-c2ccccc2)c1=O (configuration not stated) [Famprofazone]	Shigella flexneri	criterion met
NC(=O)CN1CCCC1=O [Piracetam]	Shigella flexneri	criterion not met
C[C@]12CCC(=O)C=C1C=C[C@@H]1[C@@H]2CC[C@@]2(C)[C@H]1CC[C@@]2(O)CCC(=O)O [Canrenoic acid potassium salt]	Shigella flexneri	criterion not met

I'd appreciate it if you could say whether COc1cc2c(c(OC)c1OC)-c1ccc(OC)c(=O)cc1[C@@H](NC(C)=O)CC2 [Colchicine] has growth AUC normalised to DMSO control at least equal to 1.
criterion not met

Answer whether growth AUC normalised to DMSO control of C#CCN(C)[C@H](C)Cc1ccccc1 [Selegiline hydrochloride] is greater than or equal to 1.
criterion met

Tell me whether growth AUC normalised to DMSO control is at least 1 here: S=C(NC1CCCCC1)N1CCC(c2cnc[nH]2)CC1 [Thioperamide maleate]
criterion not met

Is growth AUC normalised to DMSO control for C[C@@H]1C[C@@H]([C@H](O)CC2CC(=O)NC(=O)C2)C(=O)[C@@H](C)C1 [Cycloheximide] at or above 1?
criterion met

State whether the measured growth AUC normalised to DMSO control reaches 1, counting equality as reaching it, for CCCN1C[C@H](CSC)C[C@@H]2c3cccc4[nH]cc(c34)C[C@H]21 [Pergolide mesylate]
criterion not met

Identify whether the reported growth AUC normalised to DMSO control of the following compound is 1 or greater: CN[C@@H]1C[C@@H](c2ccc(Cl)c(Cl)c2)c2ccccc21 [Indatraline hydrochloride]
criterion met

Does growth AUC normalised to DMSO control meet or surpass 1 for NCC1(CC(=O)O)CCCCC1 [Gabapentin] ?
criterion met
